# PROTOCOL_DETAILS: soluble on expression in E. coli; label from the status in PepcDB or PDB records
REPORTED_ENDPOINT: soluble on expression in E. coli

>>> result_value("MGSDKIHHHHHHVAKSIAGGVRPGIIIDIEHRLLKQIIVGKQKAAASMFDDLDRELENDANKLAIERDAVFERLSKQIQARQVYEAVSKQLITTVNSTLDNQLASPELLIQHSGINASQMLMLELLQQKNLDLSRLRLLIADLPWLARDLTNMVNSPSFRHKRQQRSDVKVTEIKLVLNFIGVENLRLLIPYYCLRNWLPTGHANLLWTTRKLWRYAMVTGIAAKALAQLNEQDMATAYTSSLLYQLGVSVVLKNGAKVYESIWGNWLREASASRDKELHDAVLATEFPAEDIYQQVLQHAHTLNWRLPELLDFSASGLTQTQRELDTCLSYSELSTEAALVARASCYAKVLMLDEMRLISPKEKQMMFDYYQLSEQEQIRLKGQNYRKLDLY")
"not soluble"
>>> result_value("MGSDKIHHHHHHMAVPLPVSARKDTVVPVLMYHDVSNHFHDPFTISPALFAAHMEWLHAAGYRAVTVGEALAGRGATAGKMVVITFDDGYASFLDYVHPLLLQYGFSAAISVIGSHVGTWLERDGRRPMLSWDEYRYLAARRVEVGCHAYHLHAIERLRHASADELAEDLELFQKTMAREMGRRATLLAWPYGIYTSERVQIARQAGFVHILTSNEGYVDDGTDPGAIPRLNIDNRLDLVSFSNYLRGE")
"not soluble"

---

# PROTOCOL_DETAILS: soluble on expression in E. coli; label from the status in PepcDB or PDB records
REPORTED_ENDPOINT: soluble on expression in E. coli

>>> result_value("MGSDKIHHHHHHMKKYFPSSELIINEDGSVFHLHVKPEWLADKVILVGDPGRVALVASHFENKECEVESREFKTITGTYKGKRITVVSTGIGCDNIDIVMNELDALANINFETREEKEKFRQLELVRIGTCGGLQPNTPVGTFVCSQKSIGFDGLLNFYAGRNAVCDLPFERAFLNHMGWSGNMCAPAPYVIDASEELIDRIAKEDMVRGVTIAAGGFFGPQGRELRIPLADPKQNDKIEAFEYKGFKITNFEMESSALAGLSRLMGHKAMTVCMVIANRLIKEANTGYKNTIDTLIKTVLDRI")
"not soluble"
>>> result_value("MKQLYWYTCGEGDCDLVLLHGWGLNSGVWHCIIDRLAPHFRLHLVDLPGYGRSQDYGAMSLADMAERVAQQAPKQALWLGWSMGGLVASQIALSQPECVRGLITVSSSPCFTARDEWPGIKPEVLAGFQHQLSDDFHRTVERFLALQTLGTESSRQDARLLKSVVLQHQMPDVEVLTGGLAILRTADLRTALAGFTLPFMRVYGHLDSLVPRKVASLLDSAWPQTQSVVMQGAAHAPFISHPNDFAKLILNFAEENKK")
"not soluble"
>>> result_value("MGSDKIHHHHHHMKIGFLSRWGATCGVGMHAEILAREFIRMGHEVVVFAPTEESASKEVKYYKRTEAQDPEFVKREIYTEVDNVTEEGWVKEEEILKENLDLLIIETFWRVPVKPLTRLIEKLKIPVISVFHEANIFKAREVVKLPCDKIVVFDRRFYDEILEFYEIPREKVEVISYPVMKPYDAEPERPVSEDKFLFFSFGRQPVEEYCDFLNALKKLRKRFDNVHYWIIRSDGRVDYEAEWITQWQKRPTVEKLYSYLKGSNVHLLPKGNTPNVVVSSTLYQIIASETPIVIRDSRFVETIETDVYGFGPIVKYRNIHDLVHKLELLMLDRELVEDIKKEVRVFVEKYGGDKIAQEFLDLAKTITK")
"not soluble"
>>> result_value("MSLNYVAEIDLLAEELAQELEIEGGETYGILAAHLRSLYGIHITRTEAAGGLIRHFDPAGKTLALSSYMAAPTRCFQLALQIAQLHAGATVDRVLAGAGFRNAEAAEICRIGLHNYFAAALILPYGQFHRAAQELRHDLELLAVRFGASLEQVAHRLSTLQRPGMKGVPIFFAKIDRAGNITKRHSATRLQFARFGAACPLWNIHQAFESSDRIVRQLAETPDGVRYLSIATQIEKAGAGFNTERPRYAIALGCEISHAQNFVYADTLDLGNAASFKPIGISCRVCERVDCVQRAVPPLKRKLHFDHLSRGALPYQIAEGHHHHHH")
"not soluble"
>>> result_value("MGQCRSANAEDAQEFSDVERAIETLIKNFHQYSVEGGKETLTPSELRDLVTQQLPHLMPSNCGLEEKIANLGSCNDSKLEFRSFWELIGEAAKSVKLERPVRGH")
"soluble"
>>> result_value("MGSDKIHHHHHHMKFSLGPILYFWPKQQVFDFYQQAAESDVEHVYLGETVCSKRRELKLDDYLAIAHMLREAGKKVTLSTMTLLEAPAELRELGKYCDNGEFDVEANDVSAIGVLQEQGLNFTAGPGINIYNHQSLRRLIDMGMTRWVVPFELSRDWLQDVLQHNLIDTVRDCFDVEVFSFGHIPLAWSGRCFTARSENRPKDQCELCCIKYPEGREVKSQEGQQVFVLNGIQTQSGTRYNLINQLPGMNGLVDIVRISPQPEGTFDWLQRFRSNINGEHPVTLTSKENNGYWLQLAGLATG")
"not soluble"
>>> result_value("GGIYGIGLDITELKRIASMAGRQKRFAERILTRSELDQYYELSEKRKNEFLAGRFAAKEAFSKAFGTGIGRQLSFQDIEIRKDQNGKPYIICTKLSPAAVHVSITHTKEYAAAQVVIERLSS")
"soluble"
>>> result_value("MGSDKIHHHHHHMPQDTISVSLLDSRIQASRPNYYNPLLVYKTAKIKVNKDAASYKILNLTVNNYEKQIETLEKENGNGEDQFGKEKTLLKTAMSNFFNSSEESLKSADLFIYKDKPEELKNYLKVHRHTFVVLINTEGDASDDGLKIYKDDYNKFKKPSTFFVFSTKEQEIKELFKDKGNTEKERNIAVYSNNKDNLHLKFISQYLHQASIFHAVNPYGMPLAATPLVDDTVIGKLRTAKINFYSLLNETGLDGVPAFKEGVDLAGGAIDEQFTYHYIKNEAIIELIRIWNKNNRQNSKLSALQLSGARDNAYTSAIECLLKRFVDRGLIIEYKNLRLTLSPTPQLKLELSVNITYNFSINAVALVITTQDIVDYQNSLSA")
"not soluble"
>>> result_value("MGSDKIHHHHHHMNSFLDSVCALLEQGEDVVIVTIAMQSGSTPRESGAKMAVRRDGSILGTVGGGLMEAGCMELGREMLTGRFASSAAESGPELAVIRHFDLSNEEAAKAAMVCGGRLTVVAEHIQAGRRGAEVLCAARDSLLQGKACGLETTMERLEHTAAATREACFAVTGRKTPDCGHAAPAAASATLDCDGKTCRFTEWLQPSPRMIIFGAGHVALPTAAMASMTGFAVTVLDDREEFASPQRFPQARTVVLPDFGQAFAQLTITPQCYVVIMTRGHLHDKTVLEQALKTPACYVGMIGSRRKRDALYDQLRSEGVDESSIARCHCPIGLEIGARTPEEIAVSIMAEIIACRAAGNGDGAS")
"not soluble"
>>> result_value("IPGPGFTAGAQGSCSLRCGAQDGLCSCHPTCSGLGTCCEDFLDYCLEILPSSGSMMGGKDFVVQHLKWTDP")
"soluble"
>>> result_value("MKKRYLVLTALLALSLAACSQEKTKNEDGETKTEQTAKADGTVGSKSQGAAQKKAEVVNKGDYYSIQGKYDEIIVANKHYPLSKDYNPGENPTAKAELVKLIKAMQEAGFPISDHYSGFRSYETQTKLYQDYVNQDGKAAADRYSARPGYSEHQTGLAFDVIGTDGDLVTEEKAAQWLLDHAADYGFVVRYLKGKEKETGYMAEEWHLRYVGKEAKEIAASGLSLEEYYGFEGGDYVD")
"not soluble"

---

# PROTOCOL_DETAILS: soluble on expression in E. coli; label from the status in PepcDB or PDB records
REPORTED_ENDPOINT: soluble on expression in E. coli

>>> result_value("MNLNKNLPTGTRDKLFREARASYQIEQQVNHYFAKRGFKRIETPVIEFEDVFSSEHQADAKLYRFFDEKGRLTVLRPDMTLPIGRVVSTTGVTLPLKLSYSGKIFRANEDFGGEQNEQTQAGIEIIGYPSIKAEIECILSGIGVLNALEIPNFQIELGHAAIYRRVIHLLNLPETAEMDFRLLIQNKSLTGIQQFVTENPSTLDDFILALPRLFGPATTILKQAKNLTTDKGILTALTEMETIVDAVSYAADISVDLGLVQDFHYYTGIIFRGYADLAADNFLSGGRYDHLLEQFTSSSSPAVGLALNLDSLTT")
"not soluble"
>>> result_value("MGSDKIHHHHHHMASLDVFHQDAFTTIQLTTAVDKYPFQPTGLGDLNIFEPDPIRTTALAVEQRQGKLVVVPFSERGQEGTQRTTEQREARYFKVPRIMHADTLYANEIQDIRAFGTESELMQVQAEVARRLNGPTGLTSNIEYTWEYHRLAAVQGMLLDADGTVKYNWFDEFGITPPSLVPFNLSAQTPNSLRPIVNGIRRTMARKAQGAFLPTTKIFALCGDLFYDELTNHTDVIRTYLNWSAASELRDDSQGAAFEAFPFAGVTWSNYRGSDDNTTLKIPDDEVHFFPVGAPGVFRVAYAPGESFEWVNTPGKPIYVIPIYDRDRNSFWKMEAYSYPLHICTRPEVLQKGHAGA")
"not soluble"
